Reported pKd values follow for various sequences
Target: HLA-B*83:01
Assay: IEDB peptide-MHC binding, purified MHC/competitive/fluorescence; filed as Kd, often an IC50 or EC50 that approximates it; bounds were set here for any values at or beyond the usual limits of such assays
Conditions: source organism: Mycobacterium tuberculosis variant bovis BCG str. Pasteur 1173P2
pKd: −log10 of the molar value.

Return reported pKd; argument: "AEFGPWQTV"
≤ 5.30

Return reported pKd; argument: "FMFDYIPPV"
≤ 5.30

* * *

Target: HLA-B*15:17
Assay: IEDB peptide-MHC binding, purified MHC/competitive/fluorescence; filed as Kd, often an IC50 or EC50 that approximates it; bounds were set here for any values at or beyond the usual limits of such assays
Conditions: source organism: Coxiella burnetii 'MSU Goat Q177'
pKd: −log10 of the molar value.
MEASURE_NAME: pKd

Return reported pKd; argument: "AVDWYQQRI"
≤ 4.70
